Just for reference, patent US8586611B2 is where these values come from.

Item-by-item account of Test D disease rating (100 = 100% disease control, 0 = no disease control)
tested on: Phytophthora infestans; assay: whole plant or invertebrate; format: in vivo; details: tomato late blight; spray 17 h after inoculation; tested at 40 ppm
Value Kind: Test D disease rating (100 = 100% disease control, 0 = no disease control) (%)

1. Cc1cc(C(F)(F)F)nn1CC(=O)N1CCC(c2nc(C(=O)N(C)C3CCCc4sccc43)cs2)CC1 (stereo not shown); 98
2. COc1ccc2c(c1)CCCC2N(C)C(=O)c1csc(C2CCN(C(=O)Cn3nc(C(F)(F)F)cc3C)CC2)n1 (stereo not shown); 99
3. Cc1cc(C(F)(F)F)nn1CC(=O)N1CCC(c2nc(C(=O)N(C)C3CCCc4cc(Cl)ccc43)cs2)CC1 (stereo not shown); 99
4. Cc1cc(C(F)(F)F)nn1CC(=O)N1CCC(c2nc(C(=O)N(C)C3c4ccccc4CC3O)cs2)CC1 (racemic); 98
